Target: recombinant human SK (Homo sapiens)
Construct: GST (glutathione-S-transferase) (N); made in house; host or cells: bacteria (pGEX bacterial expression vector)
Sequence (Q9NYA1 whole entry): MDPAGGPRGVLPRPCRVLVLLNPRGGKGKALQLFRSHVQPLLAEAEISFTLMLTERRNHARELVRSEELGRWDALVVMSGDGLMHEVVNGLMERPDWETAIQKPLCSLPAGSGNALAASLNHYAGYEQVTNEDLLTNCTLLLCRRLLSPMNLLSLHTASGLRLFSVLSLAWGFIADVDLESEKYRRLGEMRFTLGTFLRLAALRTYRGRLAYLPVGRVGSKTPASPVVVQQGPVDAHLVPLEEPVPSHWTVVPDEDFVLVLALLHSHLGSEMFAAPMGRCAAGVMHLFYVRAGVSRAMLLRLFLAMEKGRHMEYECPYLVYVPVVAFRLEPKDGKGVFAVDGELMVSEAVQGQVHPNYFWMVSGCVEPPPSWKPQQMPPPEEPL
Assay: Recombinant human SK activity assay ([3H]sphingosine to [3H]S1P)
Format: biochemical
Settings: Human SK incubated with 6 μg/mL of compound; percentage of SK activity inhibited
For each record, write down the corresponding inhibition at 6 µg/mL.

Reference set (4 entries):
> print(dat)
                            smiles.notation     parameter.measured  result.value
1  FC(F)(F)Oc1ccc(CNCC23CC4CC(C2)CC(c2ccc(Cl)cc2)(C4)C3)cc1  inhibition at 6 µg/mL            5%
2  O=C(NCCc1ccc(Oc2ccccc2)cc1)C12CC3CC(C1)CC(c1ccc(Cl)cc1)(C3)C2  inhibition at 6 µg/mL           26%
3  O=C(NCc1ccc(F)cc1Cl)C12CC3CC(C1)CC(c1ccc(Cl)cc1)(C3)C2  inhibition at 6 µg/mL           47%
4  O=C(NCc1ccc(O)c(O)c1)C12CC3CC(CC(C3)C1)C2  inhibition at 6 µg/mL           87%

Now look at this entry.
Challenge: What measured inhibition at 6 µg/mL is associated with CN1CCC(NCC23CC4CC(C2)CC(c2ccc(Cl)cc2)(C4)C3)CC1 on recombinant human SK (Homo sapiens)?
Response given: 75%
